Data provenance is paper PMC11931385.

Readings of Kd for the listed binders
Biological target: T1, Rb^P S612P (human, UniProt P06400 380-788, S612P)
T1 construct: also called variant 39
T1 sequence (looked up): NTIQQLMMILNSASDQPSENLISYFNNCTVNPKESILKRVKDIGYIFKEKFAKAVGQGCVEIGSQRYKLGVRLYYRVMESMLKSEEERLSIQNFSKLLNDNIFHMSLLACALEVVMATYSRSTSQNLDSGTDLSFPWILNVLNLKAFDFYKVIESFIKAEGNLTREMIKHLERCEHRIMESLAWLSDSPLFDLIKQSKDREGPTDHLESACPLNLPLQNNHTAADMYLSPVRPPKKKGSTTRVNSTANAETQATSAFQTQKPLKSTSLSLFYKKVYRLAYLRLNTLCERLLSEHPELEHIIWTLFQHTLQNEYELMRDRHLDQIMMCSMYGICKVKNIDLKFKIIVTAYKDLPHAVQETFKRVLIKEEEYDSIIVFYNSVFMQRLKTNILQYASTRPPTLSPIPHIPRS
Assay: fluorescence polarisation; 37 °C, after the 25 °C reading ramped over 7 min to 37 °C and 2 min incubation; unlabeled Rb^P against 1.5 nM TMR-E2F1^TD or 7.5 nM TMR-E7^LxCxE; 25 mM Tris pH 8.0, 200 mM NaCl, 1 mM DTT, 0.1% Tween-20; apparent Kd
Conditions: both partners purified
No end group written: not given here. TMR = tetramethyl rhodamine dye

{"binder": "{TMR}-GEGIRDLFDCDFGDLTPLD (also called E2F^TD; source: synthetic peptide, bought: GenScript) [TMR-E2F1^TD, peptide of the E2F1 transactivation domain]", "Kd": "49 nM"}
{"binder": "DLYCYEQLN (also: TMR label, position not given here, source: synthetic peptide, bought: GenScript) [TMR-E7^LxCxE, LxCxE peptide of the E7 oncoprotein from HPV]", "Kd": "17 nM"}
